Source listed as patent US20210070881A1.

target: T1, recombinant BACE1 (BACE1 extracellular domain, R&D Systems Cat#931-AS) (UniProt P56817 22-457); assay: SPR Biacore
T1 construct: extracellular domain; also called BACE1 extracellular domain protein
T1 sequence (P56817 22-457): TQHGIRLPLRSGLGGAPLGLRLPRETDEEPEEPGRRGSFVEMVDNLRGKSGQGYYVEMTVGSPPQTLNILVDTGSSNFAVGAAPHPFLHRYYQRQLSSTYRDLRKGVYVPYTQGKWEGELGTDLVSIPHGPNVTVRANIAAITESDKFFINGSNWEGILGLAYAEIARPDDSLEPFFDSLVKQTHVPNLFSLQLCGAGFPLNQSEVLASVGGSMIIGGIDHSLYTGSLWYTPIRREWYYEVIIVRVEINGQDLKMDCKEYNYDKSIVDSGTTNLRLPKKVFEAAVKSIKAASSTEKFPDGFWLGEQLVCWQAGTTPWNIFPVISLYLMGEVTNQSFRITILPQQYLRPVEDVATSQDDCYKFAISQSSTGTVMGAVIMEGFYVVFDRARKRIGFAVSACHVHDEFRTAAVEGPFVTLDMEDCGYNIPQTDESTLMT
MEASUREMENT_LABEL: koff (s⁻¹)
Give the number; s⁻¹ is assumed, so skip it.

Some binders with known koff results, for comparison:
2H8.42 (antibody, human IgG1, V domains shown, human IgG1/kappa; also called 2H8_HCvar6 + 2H8_LCvar7) VH: EVQLQQSGAELVRPGTSVKLSCKASGYTFNNYWMHWVKQRPGQGLEWIGMIDPSDDDIKNNQKFKGKATLTVDTSSSTAYMQLISLTSEDSAVYYCARSGVALPYWGQGTLVTVSA VL: DILMTQSQKFMSTSVGDRVSVTCKASQNVGRNVAWYQQISGQSPKPLIYSASHRYSGVPDRFTGSGSGTDFTLTISNVQSEDLVEFFCQQYNSYPYTFGGGTKLEIK = 0.000221
2H8.40 (antibody, human IgG1, V domains shown, human IgG1/kappa; also called 2H8_HCvar4 + 2H8_LCvar7) VH: EIQLQQSGTELVRPGTSVKLSCKASGYTFTNYWMHWVKQRPGQGLEWIGMIDPSAAYTNYNQNFKGKATLTVDTSSGTAYMQLSSLTSEDSAVYYCARSGVAFPYWGQGTTVTVSS VL: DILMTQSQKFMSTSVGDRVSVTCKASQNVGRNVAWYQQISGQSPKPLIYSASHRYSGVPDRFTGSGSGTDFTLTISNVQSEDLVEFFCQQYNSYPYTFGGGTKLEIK = 0.000456

Exercise: # koff lookup, item 2H8 (antibody, human IgG1, V domains shown, chimeric, human IgG1/kappa; also called Clone 2H8; 2H8.01) VH: EVQLQQSGPELVKPGASVKLSCKASGYTFTNFWIHWLKQRPGQGLEWIGMIDPSDSYTKYNQKFKAKATLTVDTSSSTTYMHLSSLTSEDSAVYYCARSGVAFPYWGQRTLVTVSA VL: DIVMTQSQKFMSKSVGDTVSVTCKASQDVGRNVAWYQQKSGQSPKSLIYSASHRYSGVPDRFTGSGSGTDFTLTISNVQSEDLADYFCQQYNSYPYTFGGGTRLEIK
Key: 0.000316
